test system: HSkMC (human skeletal muscle cells); assay: cytotoxicity call (relative viability < 0.9); details: 10 µM
Screen size: about 39,000 compounds; about 1,500 (3.8%) were called active. Many of the other results were omitted from the sample, so actives are more common in it than they were.
Outcome field: choose from active, inactive

Exam item: Recorded test call requested for C[C@H]1CN([C@@H](C)CO)C(=O)Cc2cc(NC(=O)Nc3ccc(C(F)(F)F)cc3)ccc2O[C@@H]1CN(C)C(=O)Nc1cccc2ccccc12
Marked response: inactive

Exam item: What did the test return for C[C@@H]1CN([C@H](C)CO)C(=O)c2cc(NC(=O)Nc3cccc4ccccc34)ccc2O[C@H]1CN(C)Cc1ccc(C(F)(F)F)cc1 ?
Marked response: inactive

Exam item: // return assay outcome for C[C@@H]1CN([C@@H](C)CO)C(=O)Cc2cc(NC(=O)Nc3cccc4ccccc34)ccc2O[C@@H]1CN(C)C(=O)Nc1ccc(C(F)(F)F)cc1
Marked response: active

Exam item: What classification did O=C(C[C@@H]1CC=CCC[C@@H](Cc2ccc(F)cc2)C(=O)OC[C@H](Cc2ccccc2)NC1=O)NCCO end up with in this test?
Marked response: inactive

Exam item: Hello, I am checking results. What call was entered for C[C@H]1CN([C@@H](C)CO)C(=O)c2cc(NC(=O)Nc3cccc4ccccc34)ccc2O[C@H]1CN(C)Cc1ccc(C(F)(F)F)cc1 ?
Marked response: active

Exam item: Each molecule tested received a call. Report the one for C[C@H](CO)N1C[C@H](C)[C@@H](CN(C)Cc2ccc(C(F)(F)F)cc2)Oc2ccc(NC(=O)Nc3cccc4ccccc34)cc2CC1=O .
Marked response: inactive

Next up:
Exam item: For this molecule, state the assay outcome: C[C@@H]1CN([C@@H](C)CO)C(=O)Cc2cc(NS(=O)(=O)c3cccs3)ccc2O[C@@H]1CN(C)S(=O)(=O)c1cccs1
Marked response: inactive
